target: MMP-14 (MT1-MMP) (Homo sapiens, UniProt P50281); construct: purchased Biogenesis, supplied by Cosmobio (Nakarai Tesku); assay: Test 5 MMP-14 (MT1-MMP) inhibiting activity test; assay type: biochemical; details: human recombinant MT1-MMP, 37° C.; read-out: MMP-14 inhibition activity value
Attribute Measured: IC50 (nM)
// units = nM; emit number, no label

Report value: IC50, system: MMP-14 (MT1-MMP) (Homo sapiens, UniProt P50281), molecule: COCCCN(CC(=O)NO)S(=O)(=O)c1ccc(Oc2ccc(S(C)(=O)=O)cc2)cc1 [Example 43]
82

Report value: IC50, system: MMP-14 (MT1-MMP) (Homo sapiens, UniProt P50281), molecule: CC(C)CN(C1(C(=O)NO)CCCC1)S(=O)(=O)c1ccc(Oc2ccc(S(C)(=O)=O)cc2)cc1 [Example 2]
3800

Report value: IC50, system: MMP-14 (MT1-MMP) (Homo sapiens, UniProt P50281), molecule: CC(C)OCCN(CC(=O)NO)S(=O)(=O)c1ccc(Oc2ccc(S(C)(=O)=O)cc2)cc1 [Example 3]
172

Report value: IC50, system: MMP-14 (MT1-MMP) (Homo sapiens, UniProt P50281), molecule: CS(=O)(=O)c1ccc(Oc2ccc(S(=O)(=O)N(CCC(=O)O)CC(=O)NO)cc2)cc1 [Example 36]
938

Report value: IC50, system: MMP-14 (MT1-MMP) (Homo sapiens, UniProt P50281), molecule: CC(C)CN(C1(C(=O)NO)CCC1)S(=O)(=O)c1ccc(Oc2ccc(S(C)(=O)=O)cc2)cc1 [Example 18]
799

Report value: IC50, system: MMP-14 (MT1-MMP) (Homo sapiens, UniProt P50281), molecule: COCCN(CC(=O)NO)S(=O)(=O)c1ccc(Oc2ccc(S(C)(=O)=O)cc2)cc1 [Example 44]
343

Report value: IC50, system: MMP-14 (MT1-MMP) (Homo sapiens, UniProt P50281), molecule: CCOC(=O)CCN(C1(C(=O)NO)CCCC1)S(=O)(=O)c1ccc(Oc2ccc(S(C)(=O)=O)cc2)cc1 [Example 26]
395

Report value: IC50, system: MMP-14 (MT1-MMP) (Homo sapiens, UniProt P50281), molecule: CS(=O)(=O)c1ccc(Oc2ccc(S(=O)(=O)N(Cc3ccccc3)C3(C(=O)NO)CCOCC3)cc2)cc1 [Example 12]
893

###

biological target: MMP-3 (Homo sapiens); construct: C-terminal truncated cDNA in which the cDNA encodes human prostromelysin; assay: Test 1 Test on MMP-3 inhibiting activity (fluorogenic peptide substrate); conditions: activated MMP-3, 37° C.; read-out: MMP-3 inhibition activity value
Sequence (P08254 100-272 limits assumed): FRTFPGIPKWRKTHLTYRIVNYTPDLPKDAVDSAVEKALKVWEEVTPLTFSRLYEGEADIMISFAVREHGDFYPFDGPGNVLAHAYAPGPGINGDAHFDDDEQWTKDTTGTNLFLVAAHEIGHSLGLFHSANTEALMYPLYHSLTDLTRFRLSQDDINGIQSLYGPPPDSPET
Attribute Measured: IC50 (nM)
// units = nM; emit number, no label

# return recorded IC50 for entry CS(=O)(=O)c1ccc(Oc2ccc(CC3Sc4ccc(C(=O)O)cc4N(CC(=O)NO)C3=O)cc2)cc1 (stereo not drawn)
38

# return recorded IC50 for entry CC(C)CN(CC(=O)NO)S(=O)(=O)c1ccc(Oc2ccc(S(C)(=O)=O)cc2)cc1
15.4

# return recorded IC50 for entry CC(C)CN(C1(C(=O)NO)CCOCC1)S(=O)(=O)c1ccc(Oc2ccc(S(C)(=O)=O)cc2)cc1
5.2

# return recorded IC50 for entry CS(=O)(=O)c1ccc(Oc2ccc(S(=O)(=O)NC3(C(=O)NO)CCC3)cc2)cc1
35.9

# return recorded IC50 for entry COc1ccc(Oc2ccc(CC3Sc4ccc(C(=O)O)cc4N(CC(=O)NO)C3=O)cc2)cc1 (stereo not drawn) [compound 1, reference compound]
88

# return recorded IC50 for entry CS(=O)(=O)c1ccc(Oc2ccc(S(=O)(=O)N(CC(=O)O)CC(=O)NO)cc2)cc1
128

# return recorded IC50 for entry CCOC(=O)CN(CC(=O)NO)S(=O)(=O)c1ccc(Oc2ccc(S(C)(=O)=O)cc2)cc1
26.6

# return recorded IC50 for entry CS(=O)(=O)c1ccc(Oc2ccc(S(=O)(=O)N(CC(=O)NO)Cc3ccncc3)cc2)cc1
67.5

# return recorded IC50 for entry CC(C)(C(=O)NO)N(Cc1ccccc1)S(=O)(=O)c1ccc(Oc2ccc(S(C)(=O)=O)cc2)cc1
85.8
